These measurements were taken from patent US9376418B2.

Quick reference for pIC50 among some compounds
- Target or system: recombinant human GST-SYK (Homo sapiens, UniProt P43405)
- Construct: purchased Carna Biosciences 08-176
- Test summary: Homogeneous Time-Resolved Fluorescence (HTRF) assay for the recombinant human Syk enzyme
- Type: biochemical
- Reported conditions: HTRF assay, recombinant human GST-SYK; IC50 given as class symbols; read-out: rhSYK Activity
- Description: Homogeneous Time-Resolved Fluorescence (HTRF) Assay for the Recombinant Human Syk Enzyme A recombinant GST-hSYK fusion protein was used to measure potency of compounds to inhibit human Syk activity. […] The resulting HTRF signal was measured after 30 minutes on an EnVision (Perkin-Elmer) reader using a time-resolved fluorescence protocol.
pIC50: −log10 of the molar value.

# annotated cases, reported pIC50 shown
Cc1cc(Nc2nccc(C(F)(F)F)n2)cc(-c2ccnc(N[C@H]3CCC(=O)NC3)c2)c1 :: > 7.00
Cc1cc(Nc2nccc(C(F)(F)F)n2)cc(-c2ccc(C(=O)NCc3cnn(C)c3)nc2)c1 :: 6.00 to 7.00
Cc1cc(Nc2nccc(C3CC3)n2)cc(-c2cc(CCC(=O)O)ccn2)c1 :: > 7.00
Cc1cc(Nc2nccc(C(F)(F)F)n2)cc(-c2ccnc(C3(O)CCC(=O)CC3)c2)c1 :: > 7.00
COC(=O)C1CCC(O)(c2ccc(-c3cc(C)cc(Nc4nccc(C(F)(F)F)n4)c3)cn2)CC1(C)C (stereo not shown) :: 6.00 to 7.00

### Prompt Quick one: pIC50 of COc1ccnc(Nc2cc(C)cc(-c3cc(CCC(=O)O)ccn3)c2)n1 ?
### Response > 7.00

### Prompt Quick one: pIC50 of O=C(O)c1ccnc(-c2cccc(Nc3nccc(C(F)(F)F)n3)c2)c1 ?
### Response 6.00 to 7.00

### Prompt Quick one: pIC50 of CCOC(=O)CCc1cccc(-c2cccc(Nc3nccc(C(F)(F)F)n3)c2)n1 ?
### Response 5.00 to 6.00

### Prompt Quick one: pIC50 of Cc1cc(Nc2nccc(C(F)(F)F)n2)cc(-c2ccc(NCC3CCC(C(=O)O)CC3)nc2)c1 (stereo not shown) ?
### Response > 7.00

### Prompt Quick one: pIC50 of Cc1cc(Nc2nccc(C(F)(F)F)n2)cc(-c2ccc(NC(C)(C#N)C(C)(C)C)nc2)c1 (stereo not shown) [Example 7.115] ?
### Response 6.00 to 7.00

### Prompt Quick one: pIC50 of Cc1cc(Nc2nccc(C(F)(F)F)n2)cc(-c2cncc(C3(O)CCC(O)CC3)c2)c1 (stereo not shown) ?
### Response > 7.00

### Prompt Quick one: pIC50 of Cc1cc(Nc2nccc(C(F)(F)F)n2)cc(-c2cncc(C3(O)CCN(C(N)=O)CC3)c2)c1 ?
### Response > 7.00

---

Quick reference for pIC50 among some compounds
- Target or system: recombinant human GST-SYK (Homo sapiens, UniProt P43405)
- Construct: purchased Carna Biosciences 08-176
- Test summary: Homogeneous Time-Resolved Fluorescence (HTRF) assay for the recombinant human Syk enzyme
- Assay type: biochemical
- Reported conditions: HTRF assay, recombinant human GST-SYK; IC50 given as class symbols; read-out: rhSYK Activity
pIC50: −log10 of the molar value.

# annotated cases, reported pIC50 shown
Cc1cc(Nc2nccc(C(F)(F)F)n2)cc(-c2ccc(N3CCC[C@H]3C(=O)O)nc2)c1 :: > 7.00
Cc1cc(Nc2nccc(C(F)(F)F)n2)cc(-c2ccnc(N3CCCC(F)(F)C3)c2)c1 :: 6.00 to 7.00
CCOC(=O)CCc1cncc(-c2cc(C)cc(Nc3nccc(C4CC4)n3)c2)c1 :: > 7.00
Cc1cc(Nc2nccc(C(F)(F)F)n2)cc(-c2ccc(C(=O)N3CCNC(=O)C3C)nc2)c1 (stereo not shown) :: > 7.00
OCCN(CCO)c1cccc(-c2cc(Nc3nccc(C(F)(F)F)n3)cc(N3CCOCC3)c2)n1 :: 6.00 to 7.00

### Prompt # returns recorded pIC50 (system: recombinant human GST-SYK (Homo sapiens, UniProt P43405)) for Cc1cc(Nc2nccc(C(F)(F)F)n2)cc(-c2cncc([C@]3(O)CC[C@@H](C(=O)O)CC3)c2)c1
### Response > 7.00

### Prompt # returns recorded pIC50 (system: recombinant human GST-SYK (Homo sapiens, UniProt P43405)) for Cc1cc(Nc2nccc(C(F)(F)F)n2)cc(-c2ccc(N[C@H](CC(C)C)C(=O)O)nc2)c1
### Response > 7.00

### Prompt # returns recorded pIC50 (system: recombinant human GST-SYK (Homo sapiens, UniProt P43405)) for Cc1cc(Nc2nccc(C(F)(F)F)n2)cc(-c2ccc(CC(C)(C)C(=O)O)nc2)c1
### Response > 7.00
